All figures here come from patent US10206394B2.

System: Lolium perenne (LOLPE)
Assay: Glasshouse assay for herbicidal activity (pre- and post-emergence), percentage phytotoxicity
Type: in vivo
Details: Lolium perenne, pre-emergence, 480 h, Rate 250 g/ha; pre-emergence; visual assessment 20 DAA; 100%=total damage, 0%=no damage; read-out: Pre-emergence herbicidal activity (percentage phytotoxicity) LOLPE PRE

>  <MOLECULE>
Cc1cc(-c2ncc(Cl)cn2)cc(C)c1C1C(=O)CC(CC(=O)NCC2CC2)C1=O (stereo not shown)

>  <pest or weed control at 250 g/ha / %>
100

$$$$
>  <MOLECULE>
Cc1cc(C)c(C2=C(OC(=O)C(C)(C)C)CC(CC(=O)N(C(=O)C(C)(C)C)C3COC3)C2=O)c(C)c1 (stereo not shown)

>  <pest or weed control at 250 g/ha / %>
60

$$$$
>  <MOLECULE>
Cc1cc(-c2ncc(F)cn2)cc(Cl)c1C1C(=O)CC(CC(=O)NC(C)(C)C)C1=O (stereo not shown)

>  <pest or weed control at 250 g/ha / %>
100

$$$$
>  <MOLECULE>
C=CC(C)NC(=O)CC1CC(=O)C(c2c(C)cc(-c3ccc(F)cn3)cc2C)C1=O (stereo not shown)

>  <pest or weed control at 250 g/ha / %>
100

$$$$
>  <MOLECULE>
COCCCN(C(=O)CC1CC(OC(=O)C(C)(C)C)=C(c2c(C)cc(C)cc2C)C1=O)C(=O)C(C)(C)C (stereo not shown)

>  <pest or weed control at 250 g/ha / %>
90

$$$$
>  <MOLECULE>
C=Cc1cc(-c2ccc(Cl)cn2)cc(C)c1C1C(=O)CC(CC(=O)NC(C)(C)C)C1=O (stereo not shown)

>  <pest or weed control at 250 g/ha / %>
60

$$$$
>  <MOLECULE>
Cc1cc(-c2ccc(Cl)cn2)cc(C)c1C1C(=O)CC(CC(=O)N(C)C(C)C)C1=O (stereo not shown)

>  <pest or weed control at 250 g/ha / %>
100

$$$$

###

Test system: Lolium perenne (LOLPE)
Assay: Glasshouse assay for herbicidal activity (pre- and post-emergence), percentage phytotoxicity
Type: in vivo
Details: Lolium perenne, pre-emergence, 480 h, PRE-emergence, rate 250 g/ha, visual score 20 DAA (100%=total damage, 0%=no damage); read-out: Pre-emergence herbicidal activity (percentage phytotoxicity) LOLPE PRE
Procedure: Test—Glasshouse Assay for Herbicidal Activity Seeds of a variety of monocotyledonous and dicotyledonous test plants are sown in standard soil in pots. The plants are cultivated for one day (for pre-emergence (PRE)) or for about 12 days (for post-emergence (POST)) under controlled conditions in a glasshouse (warm climate species at 24/18° C., cool climate species at 20/16° C., both at day/night; 16 hours light; 65% humidity). […]
READOUT: pest or weed control at 250 g/ha

>  <COMPOUND>
C=CCNC(=O)CC1CC(=O)C(c2c(C)cc(/C=C/C)cc2CC)C1=O (stereo not shown)

>  <VALUE MEASURED>
100%

$$$$
>  <COMPOUND>
Cc1cc(-c2ncc(F)cc2F)cc(C)c1C1C(=O)CC(CC(=O)NC(C)C)C1=O (stereo not shown)

>  <VALUE MEASURED>
100%

$$$$
>  <COMPOUND>
CCc1cc(-n2cc(Cl)cn2)cc(C)c1C1C(=O)CC(CC(=O)NCc2ccc(C#N)cc2)C1=O (stereo not shown)

>  <VALUE MEASURED>
70%

$$$$
>  <COMPOUND>
Cc1cc(-c2ccc(C#N)cn2)cc(C)c1C1C(=O)CC(CC(=O)NC(C)C)C1=O (stereo not shown)

>  <VALUE MEASURED>
100%

$$$$
